measuredOn: 5-hydroxytryptamine receptor 1B (Rattus norvegicus, UniProt P28564)
Sequence (P28564 whole entry): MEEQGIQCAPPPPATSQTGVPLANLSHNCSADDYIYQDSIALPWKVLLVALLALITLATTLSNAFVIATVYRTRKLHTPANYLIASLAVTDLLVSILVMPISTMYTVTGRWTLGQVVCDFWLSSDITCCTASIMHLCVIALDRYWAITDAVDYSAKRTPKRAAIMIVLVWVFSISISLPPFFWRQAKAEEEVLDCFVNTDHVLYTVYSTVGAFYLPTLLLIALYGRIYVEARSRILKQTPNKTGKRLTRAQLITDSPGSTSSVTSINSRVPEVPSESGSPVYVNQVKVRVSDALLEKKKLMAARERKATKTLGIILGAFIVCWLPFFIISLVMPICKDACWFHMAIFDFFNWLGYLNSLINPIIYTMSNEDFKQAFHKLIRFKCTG

compound	measuredOn	valueComparator	IC50 (µM)
c1ccc(N2CCN(c3nc4cccnc4n4cccc34)CC2)cc1	5-hydroxytryptamine receptor 1B (Rattus norvegicus, UniProt P28564)	>	100
CCOC(=O)N1CCN(c2nc3cccnc3n3cccc23)CC1	5-hydroxytryptamine receptor 1B (Rattus norvegicus, UniProt P28564)	>	100
Fc1ccc(CN2CCN(Cc3nc4ccccc4n4cccc34)CC2)cc1	5-hydroxytryptamine receptor 1B (Rattus norvegicus, UniProt P28564)	=	31.6
c1ccc(CN2CCN(c3ncccc3-n3cccc3)CC2)cc1	5-hydroxytryptamine receptor 1B (Rattus norvegicus, UniProt P28564)	=	26.3
COc1ccc2c(c1)nc(N1CCN(Cc3ccc(F)cc3)CC1)c1cccn12	5-hydroxytryptamine receptor 1B (Rattus norvegicus, UniProt P28564)	=	69.2
Fc1ccc(CN2CCN(c3nc4ccccc4n4cccc34)CC2)cc1	5-hydroxytryptamine receptor 1B (Rattus norvegicus, UniProt P28564)	=	38
COc1ccc2c(c1)nc(N1CCN(CCCCn3cccn3)CC1)c1cccn12	5-hydroxytryptamine receptor 1B (Rattus norvegicus, UniProt P28564)	=	3.55
c1ccc(CN2CCN(c3nc4cccnc4n4cccc34)CC2)cc1	5-hydroxytryptamine receptor 1B (Rattus norvegicus, UniProt P28564)	=	13.2
C=CCN1CCN(c2nc3ccc4ncccc4c3n3cccc23)CC1	5-hydroxytryptamine receptor 1B (Rattus norvegicus, UniProt P28564)	=	19.5
c1ccc(CN2CCN(c3ccc4nc(N5CCN(Cc6ccccc6)CC5)c5cccn5c4n3)CC2)cc1	5-hydroxytryptamine receptor 1B (Rattus norvegicus, UniProt P28564)	>	100
c1ccc(CN2CCN(c3nc4ccccc4n4cccc34)CC2)cc1	5-hydroxytryptamine receptor 1B (Rattus norvegicus, UniProt P28564)	=	12.9
c1cnc2ccc3nc(N4CCN(Cc5ccc6c(c5)OCO6)CC4)c4cccn4c3c2c1	5-hydroxytryptamine receptor 1B (Rattus norvegicus, UniProt P28564)	=	58.9
c1cnc2c(c1)nc(N1CCNCC1)c1cccn12	5-hydroxytryptamine receptor 1B (Rattus norvegicus, UniProt P28564)	=	0.151
c1ccc(CN2CCN(c3nc4ccc5ncccc5c4n4cccc34)CC2)cc1	5-hydroxytryptamine receptor 1B (Rattus norvegicus, UniProt P28564)	=	97.7
Cc1ccc2c(c1)nc(N1CCN(Cc3ccc(F)cc3)CC1)c1cccn12	5-hydroxytryptamine receptor 1B (Rattus norvegicus, UniProt P28564)	=	10
COc1ccc2nc(N3CCN(Cc4ccccc4)CC3)c3cccn3c2n1	5-hydroxytryptamine receptor 1B (Rattus norvegicus, UniProt P28564)	>	100
CN1CCN(c2nc3cccnc3n3cccc23)CC1	5-hydroxytryptamine receptor 1B (Rattus norvegicus, UniProt P28564)	=	0.245
Fc1ccc(CN2CCN(c3nc4cc(Cl)ccc4n4cccc34)CC2)cc1	5-hydroxytryptamine receptor 1B (Rattus norvegicus, UniProt P28564)	>	100

* * *

measuredOn: 5-hydroxytryptamine receptor 2C (Sus scrofa)
assayText: Binding affinity against 5-Hydroxytryptamine 2C Receptor was measured using [3H]N-methyl-mesulergine as radioligand
Response field label takes YES when IC50 is strictly below 40 µM and NO in all other cases.

compound	assignedClass
Clc1ccc2c(c1)nc(N1CCN(Cc3ccc4c(c3)OCO4)CC1)c1cccn12	NO
Clc1ccc2nc(N3CCN(Cc4ccccc4)CC3)c3cccn3c2c1	NO
COc1ccc2nc(N3CCN(Cc4ccc(F)cc4)CC3)c3cccn3c2n1	NO
Fc1ccc(CN2CCN(c3nc4cc(Cl)ccc4n4cccc34)CC2)cc1	NO
Cc1ccc2c(c1)nc(N1CCN(Cc3ccc(F)cc3)CC1)c1cccn12	NO
Cc1ccnc2c1nc(N1CCN(Cc3ccccc3)CC1)c1cccn12	NO
C=CCN1CCN(c2nc3cccnc3n3cccc23)CC1	YES
c1ccc(COc2ccc3nc(N4CCN(Cc5ccccc5)CC4)c4cccn4c3n2)cc1	NO
Fc1ccc(CN2CCN(c3nc4cccnc4n4cccc34)CC2)cc1	YES
c1ccc(CN2CCN(c3ccc4nc(N5CCN(Cc6ccccc6)CC5)c5cccn5c4n3)CC2)cc1	NO
CN1CCN(c2nc3cccnc3n3cccc23)CC1	YES
